System: U251 CNS
Assay: NCI tumour cell line growth inhibition, 48 h
Property Name: TGI

| Record Smiles | Experimental Target | TGI |
| --- | --- | --- |
| CC1(C)Cc2c(sc3[nH]c(=S)[nH]c(=S)c23)CS1 | U251 CNS | > 100 µM |
| O=S1(=O)c2ccccc2N(c2ccccc2)c2nnnn21 | U251 CNS | > 100 µM |

Now turn to the next molecule.
May I ask what TGI has been recorded for C=C1N(S(=O)(=O)c2ccc(C)cc2)C(=O)OCC12CCCC2 ?
> 100 µM

* * *

Tested on: SW-620 colon
Assay: NCI tumour cell line growth inhibition, 48 h
Provide the recorded TGI for the entries that follow.
Give bare numbers, in µM.

Answered cases to consult:
| Record Smiles | TGI (µM) |
| --- | --- |
| CCc1nc(C)cn1C(=O)OCc1nc2nc(Cl)nc(N3CCOCC3)c2[nH]1 | 2.69 |
| COc1cc(C(=O)/C=C/c2cc(-c3ccc4c(c3)OCO4)n[nH]2)cc(OC)c1OC | 3.8 |
| O=C1/C(=C\c2ccc(F)cc2)CN(C(=O)c2ccccc2F)C/C1=C\c1ccc(F)cc1 | 1.73 |
| O=S1(=O)c2ccccc2N(c2ccccc2)c2nnnn21 | 53.6 |

May I ask what TGI has been recorded for C[C@@H]1S[C@H](c2c(F)cccc2Cl)n2c1nc1ccccc12 ?
27.2

* * *

System: SK-OV-3 ovarian
Experiment: NCI tumour cell line growth inhibition, 48 h
Property Name: TGI

| Compound | Property Name | Result |
| --- | --- | --- |
| O=C1C=C(c2ccccc2)OC1C1Sc2ccccc2NC1=O (centres undefined) | TGI | > 33.8 µM |
| c1ccc(-c2[nH]ncc2-c2ccnc(-c3ccc(OCCN4CCOCC4)cc3)c2)nc1 | TGI | > 25 µM |
| Clc1cccc(-c2nc3cccc4c3n2Cc2ncccc2-4)c1 | TGI | > 100 µM |

Now turn to the next compound.
Query the reported TGI for SK-OV-3 ovarian; item: COC(=O)[C@@H]1C[C@@H](O)CN1C(=O)c1ccc([N+](=O)[O-])cc1[N+](=O)[O-]
> 100 µM

* * *

Provide the recorded log10 TGI for the entries that follow.
Tested on: OVCAR-5 ovarian
Test: NCI tumour cell line growth inhibition, 48 h
Transform log10 | Measure TGI | Unit µM

Answered cases to consult:
| Compound | log10 TGI |
| --- | --- |
| CNC(=O)ON(C(C)=O)C(=O)NC | 2.44 |
| C=C(Cl)/C(=C\Cl)CCC(Cl)C(C)C (centres undefined) (tested in a mixture with another compound) | 1.54 |

Please state log10 TGI for every compound in the list that follows.
1. C=C(COCO)C(C)=O
2. Cc1ccc(N2C(=O)C3c4[nH]c5ccc(C)cc5c4C4CCC(C(C)(C)C)CC4C3C2=O)cc1 (centres undefined)
3. NCCCNc1nc2ccccc2c2c(=O)c3cc(F)ccc3sc12
4. COC(=O)[C@H](Cc1cn(C)cn1)NC(=O)[C@H](CC(=O)OCc1ccccc1)NC(=O)Nc1cc(C(F)(F)F)cc(C(F)(F)F)c1

1. 1.55
2. 1.49
3. 0.48
4. 1.53

* * *

Provide the recorded TGI for the entries that follow.
Tested on: PC-3 prostate
Experiment: NCI tumour cell line growth inhibition, 48 h

| Compound | TGI |
| --- | --- |
| CC(C)(C)OC(=O)N(O)[C@@H]1CC[C@H](n2cnc3c(N)ncnc32)C1 | > 100 µM |

Please state TGI for every compound in the list that follows.
1. CC(=O)Nc1cc(Cl)cc(Cl)c1O
2. O[C@@]1(C#Cc2ccc3c(c2)OCO3)CCC[C@H]1NCc1ccccc1
3. c1ccc2sc(SSSc3nc4ccccc4s3)nc2c1
4. Cc1nc2sc(C(=O)Nc3cccc(Br)c3C)c(N)c2cc1C(O)c1ccccc1 (stereo not given)

1. > 100 µM
2. 51.3 µM
3. > 100 µM
4. 37.7 µM
